Just for reference, the supplement of paper PMC9433436 is where these values come from.

Target: E. coli RNase P holoenzyme (M1 P RNA + rnpA protein) (UniProt P0A7Y8)
Sequence: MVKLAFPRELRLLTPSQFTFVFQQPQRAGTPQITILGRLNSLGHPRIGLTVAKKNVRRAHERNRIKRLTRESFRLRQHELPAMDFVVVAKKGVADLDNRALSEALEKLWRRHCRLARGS
Experiment: relative kcat/Km (krel) vs genomic leader AAAGAU (relative (reference leader = 1)); higher = faster RNase P cleavage
Conditions: fraction of substrate reacted: ~9-10% (9.79% repeat 1, 9.1% repeat 2)
Over roughly 4,100 sequences, “relative kcat/Km (krel) vs genomic leader AAAGAU” has its median near 1.7; the highest 2% begin near 6.5. The list comes from a sample in which the highest values are over-represented; it also holds close analogues and randomly drawn sequences.
# relative kcat/Km listing for each entry below

Some solved cases for reference:
TTCGTA    3.36
TGCGAA    1.78

Query: Reported relative kcat/Km, sequence `CGCATT` : ____
Result: 2.39

Query: Give the measured relative kcat/Km of `TCCAAT` .
Result: 3.48

Query: Looking for the measured relative kcat/Km of `GCCATC` , can you help?
Result: 2.88

Query: Can you look up the measured relative kcat/Km of `TATAAT` for me?
Result: 3.05

====

Target: E. coli RNase P holoenzyme (M1 P RNA + rnpA protein) (UniProt P0A7Y8)
Sequence: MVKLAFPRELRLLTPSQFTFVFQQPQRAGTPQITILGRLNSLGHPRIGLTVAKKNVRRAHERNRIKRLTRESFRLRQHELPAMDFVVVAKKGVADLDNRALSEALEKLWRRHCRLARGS
Assay: relative kcat/Km (krel) vs genomic leader AAAGAU (relative (reference leader = 1)); higher = faster RNase P cleavage
Conditions: fraction of substrate reacted: ~26-29% (28.66% repeat 1, 26.4% repeat 2)
In all, about 4,100 sequences were measured (“relative kcat/Km (krel) vs genomic leader AAAGAU”: median about 1.7, highest 2% from about 6.5 on). For the sample, the highest values were picked, then their nearest neighbours and some sequences at random.
Entries annotated with measured relative kcat/Km
Respond using a number only.

Example entries begin here.
TAAGGC    2.44
TTAACT    2.03
CACTGC    6.06
TCGTAC    7.91
GTGTAC    3.45

Shifting focus to the sequence that follows.
Query: Which measured relative kcat/Km belongs to `ACAGAG` , tested on E. coli RNase P holoenzyme (M1 P RNA + rnpA protein) (UniProt P0A7Y8)?
Result: 1.94

====

Biological target: E. coli RNase P holoenzyme (M1 P RNA + rnpA protein)
Sequence: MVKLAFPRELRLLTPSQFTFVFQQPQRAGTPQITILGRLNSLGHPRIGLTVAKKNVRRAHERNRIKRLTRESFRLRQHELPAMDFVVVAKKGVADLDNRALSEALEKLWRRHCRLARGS
Experiment: relative kcat/Km (krel) vs genomic leader AAAGAU (relative (reference leader = 1)); higher = faster RNase P cleavage
Details: fraction of substrate reacted: ~13-16% (15.68% repeat 1, 13.17% repeat 2)
Whole data set: some 4,100 sequences, median “relative kcat/Km (krel) vs genomic leader AAAGAU” near 1.7, cut for the highest 2% near 6.5. The sample holds the highest values, similar sequences and a random draw of the others, so the mix is not that of the screen.
observable: relative kcat/Km
// no unit string in output, number only

Worked examples follow.
CCCATA    3.03
TACACA    3.7

Query: Recorded relative kcat/Km of `GGCAAA` , please.
Result: 3.13

Query: I would be grateful if you could share the reported relative kcat/Km for `TTAAGA` .
Result: 2.89

Query: Dear colleague, I am looking for the recorded relative kcat/Km of the following sequence: `TACAGA`
Result: 5.66

Query: Quick check: relative kcat/Km of `TGCTGC` ?
Result: 1.51

Query: GET /values?readout=relative kcat/Km&item= `CTCTGC`
Result: 5.74

Query: What value of relative kcat/Km has been reported for the following sequence? `CTTAAG`
Result: 1.63

Query: Look up relative kcat/Km: `CCAGTC`
Result: 1.32

Query: relative kcat/Km for `TACCGA` ?
Result: 4.89

Query: What relative kcat/Km value was documented for this sequence, `GGAGCT` ?
Result: 0.705

Query: Given the entry `CACCGA` , report its measured relative kcat/Km.
Result: 3.9

Query: relative kcat/Km lookup needed for `TGCAAA` , thanks.
Result: 1.86

Query: Give the measured relative kcat/Km of `TTCTGG` .
Result: 0.819

Query: Any idea what its relative kcat/Km is? The sequence is `GGATAC`
Result: 1.76

Query: Dear colleague, I am looking for the recorded relative kcat/Km of the following sequence: `GTCAAT`
Result: 4.56

Query: Which relative kcat/Km value belongs to `GCCTGC` ?
Result: 3.39

Query: What measured relative kcat/Km goes with `AACCGA` ?
Result: 3.23

Query: Tell me the measured relative kcat/Km of `ATCTGA` , please.
Result: 3.98

Query: What measured relative kcat/Km goes with `GTCAAG` ?
Result: 2.63

Query: So what does the record say about relative kcat/Km for `GTCTGC` ?
Result: 4.94

Query: // query relative kcat/Km value for entry `TAAGCC`
Result: 2.16

Query: Would you kindly share the measured relative kcat/Km for `GACCGA` ?
Result: 4.27
